target.of.assay: Erythrocyte tubulin (CeTb), colchicine site (Gallus gallus)
experimental.details: biochemical
Format: binding, chicken (Gallus gallus)
condition.label: summary of competition titrations with MDL; read-out: Erythrocyte tubulin (CeTb) Kd (Table 4, selected drugs)
The following molecules are listed with their measured Kd values.
Express your answer as a number followed by its unit.

Please review the entries below; each comes with its answer.
CCCSc1ccc2nc(NC(=O)OC)[nH]c2c1 [Albendazole] = 35 µM
COC(=O)Nc1nc2ccc(C(=O)c3ccccc3)cc2[nH]1 [Mebendazole] = 2.6 µM
COc1cc([C@@H]2c3cc4c(cc3[C@H](O)[C@H]3COC(=O)[C@H]23)OCO4)cc(OC)c1OC [Podophyllotoxin] = 4.9 µM

Then this molecule:
## Task Read off the recorded Kd for CCCOc1ccc2nc(NC(=O)OC)[nH]c2c1 [Oxibendazole]
## Result 12 µM

----------
target.of.assay: Erythrocyte tubulin (CeTb), colchicine site (Gallus gallus, UniProt P09207)
experimental.details: biochemical
condition.label: competition titration, 1 µM tubulin, 5 µM MDL
measure.name: IC50 (µM)
Write it as a number; the unit µM goes unstated.

COC(=O)Nc1nc2ccc(C(=O)c3ccccc3)cc2[nH]1 = 6.8
COc1cc([C@@H]2c3cc4c(cc3[C@H](O)[C@H]3COC(=O)[C@H]23)OCO4)cc(OC)c1OC = 15
CCCOc1ccc2nc(NC(=O)OC)[nH]c2c1 = 36
CCCSc1ccc2nc(NC(=O)OC)[nH]c2c1 = 104

Then this compound:
## Task Read off the recorded IC50 for COC(=O)Nc1nc2ccccc2[nH]1
## Result 37

----------
target.of.assay: Erythrocyte tubulin (CeTb), colchicine site (Gallus gallus, UniProt P09207)
experimental.details: biochemical
Format: binding, chicken (Gallus gallus)
condition.label: competition titration, 1 µM tubulin, 5 µM MDL; calculated with Equation 4; read-out: Erythrocyte tubulin (CeTb) Kd
The following molecules are listed with their measured pKd values.
Keep it numeric: pKd is minus log10 of the concentration in mol/L.

Please review the entries below; each comes with its answer.
COc1cc([C@@H]2c3cc4c(cc3[C@H](O)[C@H]3COC(=O)[C@H]23)OCO4)cc(OC)c1OC = 5.31
COC(=O)Nc1nc2ccc(C(=O)c3ccccc3)cc2[nH]1 = 5.64
CCCSc1ccc2nc(NC(=O)OC)[nH]c2c1 = 4.46
COC(=O)Nc1nc2ccccc2[nH]1 = 4.89

Then this molecule:
## Task Read off the recorded pKd for CCCOc1ccc2nc(NC(=O)OC)[nH]c2c1
## Result 4.92

----------
target.of.assay: Bovine brain tubulin (BBTb) (Bos taurus)
Construct: purchased Cytoskeleton, Inc. or Sigma-Aldrich #HTS02-A or #T4925; host or cells: bovine brain
experimental.details: MDL fluorescence dilution titration, bovine brain tubulin
Assay type: binding
condition.label: 1 µM tubulin, PM buffer, 5% DMSO, 25°C; ± standard error of fit
measure.name: Kd (nM)
Write it as a number; the unit nM goes unstated.

## Task Lab note: Bovine brain tubulin (BBTb) (Bos taurus) assay, enter Kd for COc1ccc(OC)c(C(=O)/C(C)=C/c2ccc(N(C)C)cc2)c1 here
## Result 540

----------
target.of.assay: Brain tubulin (BTb), colchicine site (Bos taurus)
Construct: from tissue; host or cells: mammalian brain: either rat brain (purified in house) or bovine brain (bought from Cytoskeleton #HTS02-A or Sigma-Aldrich #T4925)
experimental.details: Competition titration with MDL (fluorescence), brain tubulin
Type: binding, bovine or rat
condition.label: competition titration, 1 µM tubulin, 5 µM MDL; nb = no binding detected; read-out: Brain tubulin (BTb) IC50
measure.name: pIC50
Keep it numeric: pIC50 is minus log10 of the concentration in mol/L.

## Task Lab note: Brain tubulin (BTb), colchicine site (Bos taurus) assay, enter pIC50 for COC(=O)Nc1nc2ccc(C(=O)c3ccccc3)cc2[nH]1 here
## Result 4.85

Recorded values, source paper PMC9194530.
